Test system: COLO 205
Experiment: NCI tumour cell line growth inhibition, 48 h
The source made the active and inactive calls. Cut-off read from the data, not from the text of the source: active = GI50 up to about 1.1 µM and inactive = higher.
attributeMeasured: GI50

Data request: Quick one: GI50 for Cc1ccc(S(=O)(=O)NN=C2C(C)CC(C(C)(C)C)CC2C)cc1 (stereo not given) ?
Data returned: 18.4 µM (inactive)

Data request: Query O=C(O)C1=C(C(=O)O)N(c2ccncc2)C(c2ccco2)=CC1c1ccccc1[N+](=O)[O-] (stereo not given) next
Data returned: 14.2 µM (inactive)

Data request: Query CCSC1(SCC)CCN(/C=N/C(C)(C)C)C1 next
Data returned: 54.7 µM (inactive)

Data request: Query Cc1ccc(/N=N/C(=N/NC(=O)c2cc(Cl)ccc2O)c2ccc(N(CCC#N)CCC#N)cc2C)cc1 next
Data returned: 12.4 µM (inactive)

Data request: Query CSc1ccc(/C=C2\N=C(c3ccccc3)N(c3nc4cc(Cl)c(F)cc4s3)C2=O)cc1 next
Data returned: 54.5 µM (inactive)

Data request: Query N/C(=N\N=C=C1C(=O)Nc2ccc(F)cc21)NO next
Data returned: > 100 µM (inactive)

Data request: Query C[C@@H](O)CCC(=O)c1ccoc1 next
Data returned: > 100 µM (inactive)

Data request: Query COc1ccc(C(c2ccc3c(c2)OCO3)N2C(=O)CCC2C(=O)O)cc1 (stereo not given) next
Data returned: > 100 µM (inactive)

Data request: Query C=CCC1([C@H](C)[C@@H](OC(C)=O)c2cc(OC)c(OC)c(OC)c2)C[C@@H](OC)CCC1=O (stereo not given in full) next
Data returned: 19.1 µM (inactive)

Data request: Query Nc1[nH]c(=S)[nH]c(=O)c1/N=N/c1c(Br)cc(S(N)(=O)=O)cc1Br next
Data returned: > 100 µM (inactive)

Hello, the source for this data is ChEMBL document CHEMBL1201862, in case you need it.
